System: MS2 coat protein
Test summary: apparent KD of MS2 coat protein; designed switch direction (-1 OFF switch, 1 ON switch): 1; higher = weaker reporter binding
Protocol conditions: input ligand: none
# apparent KD of MS2 coat protein listing for each entry below
State just the number; it will be interpreted in µM.

Please review the following examples before continuing.
- CGUCGUUUGAUAGGAUAUCGCUUUGCAUGAGGAUCACCCAUGUUUACCACGCUGGUUUUUCUUUCCGAGAAGGAUUCUGAUGUU [salish99_SSNG02_r04_024] (Eterna round: R96, puzzle: Same State NG 2): 0.0396
- AUCCGGAAGCGAGGAUAUGCAGAGGAUCACCCUGCAGAAGGCGCGAUCGCGAGGAUAUGCAGAGGAUCACCCUGCAGAAGGCGC [pwkr ssNG DX.31] (Eterna round: R96, puzzle: Same State NG 1): 0.0251
- UAACAGUACAAUUUAGAUCUACAUGAGGAUCACCCAUGUACUGAGGAUAUCAGCUCGUUUAGAGCUGAGAAGGCAGAAGAACUA [SSNG3/11-A3] (Eterna round: R96, puzzle: Same State NG 3): 0.218
- AGAGGAGGAGCAGGAUAUUCGAAGAAGGACGUGGAAGAAGGGUUCAUGCGAUGACAUGAGGAUCACCCAUGUACCGCGCGUUGA [AK SSNG1-V2-14] (Eterna round: R96, puzzle: Same State NG 1): 0.156

[ask] Given the sequence AUUAAUAAUCGAGGAUAUCACGUCGAAUAGACGUGAGAAGGCGAUCAUAACAUGAGGAUCACCCAUGUAUUACAUGAAAUUAAU [SSNG1/4-B4] (Eterna round: R96, puzzle: Same State NG 1) , what is its reported apparent KD of MS2 coat protein?
[reply] 0.0381

----------
System: MS2 coat protein
Test summary: apparent KD of MS2 coat protein; higher = weaker reporter binding
Protocol conditions: Eterna round: R107; input ligand: theophylline 2 mM
# apparent KD of MS2 coat protein listing for each entry below
State just the number; it will be interpreted in nM.

Please review the following examples before continuing.
- GGAUAGGACACGGCCGCCACUAGCUAGGAUACUAGCAACAUUUCCUCGCAUGAGGAUCACCCAUGUAGGACCGGGUGUCCUAUCG: 495
- AAUACCGGAUCGGCCGCCACUGGUUGGCCCUGUGUACAUGAGGAUCACCCAUGUCCAUCCCAGACCAGGACCGGGAUCUUUGUGU [Ingeraza]: 18.5
- AAAAUCCUAUCUGAGGAUCACCCAGGUGAAGGAGCGCCCGAAAGGGCAGGUAGGUCGCACCUGAGGAUCACCCUGGUAAACCUAA [ArgEX 21 #DoubleMS2 #OpenEnded]: 90.6
- UAACAUGAGGAUCACCCAUGUAUACUAAGUCGAGGACCGGUACGGCCGCCACUCGAACUUCAAGAAUAGGCGGUAAAUGUAAGUA [JR_ExcTryptoA_Sub020]: 14
- GGAUAGGACACGGCCGCCACUGCCUAGGAUACUAGCAACAUUUGGGUACAUGAGGAUCACCCAUGUAGGACCGGGUGUCCUAUCG: 70.3
- UAUCCACAUGAGGAUCACCCAUGUAGGGAAGGAGCGGUGGUUUCACCAGGUAGGUCGCCUUACUGAGGAGAACCGGUGGAAUCGU [Exclusion - Arginine A (Freestyle 29)]: 105
- GCUGUACCAUGAAGGAGCGCUCACGCAGUUGCGGGUACAUGAGGAUCACCCAUGUUGGGUGAGCAGGUAGGUCGCAUGGUACAGC [SSAB #17]: 230
- UGUAUGUGAUCUGAUACCAGUCCAACUGGUAAAACACGAGGAUCACCCGUGUAAAAUUGGGACCCUUGGCAGCAGAUCGCAUACU: 12.6
- AAACGCCACGGAAGGAGCGACAUGAGGAUCACCCAUGUAGUUUUGGCGGAUGCACCCUCCUGUCAGGUAGGUCGCCGUGCGAUAA [XArg-B26]: 68.5
- GAGACAUCGGGAAGGAGCGCAUCCAAACCACACAUGAGGAUCACCCAUGUAUAAAUAUGCAUGCAGGUAGGUCGCCCGGUAUCCC [Tiisqure]: 35

[ask] Given the sequence UGGAUAAGGGUAAAUAGGAUAAGUACAGAAGGAGCGCGAAUAAACGCAGGUAGGUCGCUGGACAUGAGGAUCACCCAUGUAAAUG [Same State Arginine A GF 22] , what is its reported apparent KD of MS2 coat protein?
[reply] 57.6

[ask] Given the sequence GCUACAUGAGGAUCACCCAUGUGUACUGAAGGAGCGGCGGAAACGCCAGGUAGGUCGCAGUAUGUGGCUCUGGGCACGAGAUGGC [SSAA NP+V+V2 #1] , what is its reported apparent KD of MS2 coat protein?
[reply] 35.9

[ask] Given the sequence UCGGGAACAUGAGGAUCACCCAUGUCAGAAGGAGCGCUGAGAGAAGCAGGUAGGUCGCUGACGCAGGAGCUCUCUUCCUGUACGC [#22 Exclusion - Arginine A] , what is its reported apparent KD of MS2 coat protein?
[reply] 22.6

The reported numbers originate from the supplement of paper PMC9170038.
